Assay: Sensory evaluation, intensity of sweetness in aqueous sucrose solution
Assay type: in vivo
Details: 10 ppm added to 2% sucrose; additive-free = 3.0; 1.0 much weaker to 5.0 much stronger
Procedure: All sensory evaluation of taste was performed by individuals wearing a nose clip. The evaluation was performed by groups of three individuals, and the scores were averaged. To a 0.2% aqueous sodium glutamate (MSG) solution (=umami), a 0.8% aqueous salt (NaCl) solution (=saltiness) and a 2% aqueous sucrose solution (=sweetness) were added 10 ppm linear aliphatic aldehydes having 3-12 carbon atoms shown in Table 1, respectively. […]
For each entry below, report its Intensity of sweetness, Aqueous sucrose solution value.
Number only, please.

Ask: Entry CCCCO : reported Intensity of sweetness, Aqueous sucrose solution = ?
Reply: 3.2

Ask: If you can, please state the reported Intensity of sweetness, Aqueous sucrose solution value of CCCCCO .
Reply: 3.2

Ask: # get_value(readout='Intensity of sweetness, Aqueous sucrose solution', item= C=CC(O)CCCCC (stereo not shown) )
Reply: 3.5

Ask: Which Intensity of sweetness, Aqueous sucrose solution reading was recorded for the compound CCCCCCCCCCC=O [n-undecanal, reference compound] ?
Reply: 3.0

Ask: Please look up its Intensity of sweetness, Aqueous sucrose solution: CCC=O
Reply: 3.5

Ask: If you can, please state the reported Intensity of sweetness, Aqueous sucrose solution value of CCCCCCO .
Reply: 3.2

Ask: Recorded Intensity of sweetness, Aqueous sucrose solution of C=CC(O)CCC (stereo not shown) , please.
Reply: 3.5

Ask: Give its Intensity of sweetness, Aqueous sucrose solution value. Item: CCCC=CC=O
Reply: 3.8

Ask: Which Intensity of sweetness, Aqueous sucrose solution reading was recorded for the compound C=CC(C)O (stereo not shown) ?
Reply: 3.5

Ask: Look at this compound and give its reported Intensity of sweetness, Aqueous sucrose solution. C=CCCCC=CCO
Reply: 3.5

Ask: Reported Intensity of sweetness, Aqueous sucrose solution for CCCCCCCCO : what is it?
Reply: 3.2

Ask: Param item = CCCCCCCCCCCO [Example 1-undecanol, 1-undecanol, reference compound] ; retrieve measured Intensity of sweetness, Aqueous sucrose solution.
Reply: 3.0

Ask: // Intensity of sweetness, Aqueous sucrose solution lookup, key: CCCCCCCCCCO
Reply: 3.2

Ask: I have this compound here, CCCCC=O , and I need its recorded Intensity of sweetness, Aqueous sucrose solution.
Reply: 4.0

Ask: What Intensity of sweetness, Aqueous sucrose solution value was documented for this compound, CCCCCC=CC=CC=O ?
Reply: 3.5

Ask: Any idea what its Intensity of sweetness, Aqueous sucrose solution is? The compound is CCCCCCCC=O
Reply: 3.5

Ask: I would be grateful if you could share the reported Intensity of sweetness, Aqueous sucrose solution for CCCCCCCCCCCC=O [n-dodecanal, reference compound] .
Reply: 3.0

Ask: Report Intensity of sweetness, Aqueous sucrose solution for CCCCCC=O please.
Reply: 4.5

Ask: So what does the record say about Intensity of sweetness, Aqueous sucrose solution for CCCCCCC=O ?
Reply: 4.0

Ask: Could you tell me which Intensity of sweetness, Aqueous sucrose solution is on file for CCCCCCCCCO ?
Reply: 3.2

Ask: Suppose we examine the compound CCO [ethanol, reference compound] ; what Intensity of sweetness, Aqueous sucrose solution value has been reported?
Reply: 3.0

Ask: Fill in the blank: the reported Intensity of sweetness, Aqueous sucrose solution of CCCCCCCCCC=O is ____.
Reply: 3.5

Ask: Any idea what Intensity of sweetness, Aqueous sucrose solution was measured for CCCC=O ?
Reply: 3.5

Ask: Item CCCCCCCO has what recorded Intensity of sweetness, Aqueous sucrose solution?
Reply: 3.2

Ask: Which measured Intensity of sweetness, Aqueous sucrose solution value corresponds to C=CC(O)CCCCCCC (stereo not shown) ?
Reply: 3.5

---

Test: Sensory evaluation, intensity of saltiness in aqueous NaCl solution
Format: in vivo
Conditions: 10 ppm added to 0.8% NaCl; additive-free = 3.0; 1.0 much weaker to 5.0 much stronger
Experimental: All sensory evaluation of taste was performed by individuals wearing a nose clip. The evaluation was performed by groups of three individuals, and the scores were averaged. To a 0.2% aqueous sodium glutamate (MSG) solution (=umami), a 0.8% aqueous salt (NaCl) solution (=saltiness) and a 2% aqueous sucrose solution (=sweetness) were added 10 ppm linear aliphatic aldehydes having 3-12 carbon atoms shown in Table 1, respectively. […]
Would you kindly list Intensity of saltiness, Aqueous NaCl solution for each of these molecules?

Ask: # get_value(readout='Intensity of saltiness, Aqueous NaCl solution', item= CCCCCCCCO )
Reply: 3.2

Ask: So what does the record say about Intensity of saltiness, Aqueous NaCl solution for CCCCCCC=O ?
Reply: 4.5

Ask: Entry C=CC(O)CCCCCCC (stereo not shown) : reported Intensity of saltiness, Aqueous NaCl solution = ?
Reply: 3.2

Ask: Fill in: Intensity of saltiness, Aqueous NaCl solution of CCCCCCCC=O is ___
Reply: 3.8

Ask: Intensity of saltiness, Aqueous NaCl solution lookup needed for CCCCCC=CC=CC=O , thanks.
Reply: 3.5

Ask: Which value of Intensity of saltiness, Aqueous NaCl solution has been reported for CCCC=CC=O in the records?
Reply: 3.8

Ask: If you can, please state the reported Intensity of saltiness, Aqueous NaCl solution value of CCCCCCCCCCO .
Reply: 3.2

Ask: Record request: Intensity of saltiness, Aqueous NaCl solution value, item C=CC(O)CCCCC (stereo not shown)
Reply: 3.5

Ask: Report Intensity of saltiness, Aqueous NaCl solution for CCCCCO please.
Reply: 3.2

Ask: Recorded Intensity of saltiness, Aqueous NaCl solution for CCCCCCCCCCC=O [n-undecanal, reference compound] , please?
Reply: 3.0

Ask: GET /values?readout=Intensity of saltiness, Aqueous NaCl solution&item= CCCCCCCCCCCC=O [n-dodecanal, reference compound]
Reply: 3.0

Ask: Given the entry CCCCC=O , report its measured Intensity of saltiness, Aqueous NaCl solution.
Reply: 4.5

Ask: Reported Intensity of saltiness, Aqueous NaCl solution, molecule C=CCCCC=CCO : ____
Reply: 3.2

Ask: For CCCCCC=O , what is its reported Intensity of saltiness, Aqueous NaCl solution?
Reply: 5.0

Ask: Report Intensity of saltiness, Aqueous NaCl solution for C=CC(C)O (stereo not shown) please.
Reply: 3.2

Ask: Entry under review: C=CC(O)CCC (stereo not shown) . Reported Intensity of saltiness, Aqueous NaCl solution?
Reply: 3.2

Ask: Value lookup for Intensity of saltiness, Aqueous NaCl solution; key = CCCCCCO
Reply: 3.2

Ask: Look at this molecule and give its reported Intensity of saltiness, Aqueous NaCl solution. CCC=O
Reply: 3.5

Ask: // Intensity of saltiness, Aqueous NaCl solution lookup, key: CCCCCCCCCO
Reply: 3.2

Ask: Entry CCCCCCCCCCCO [Example 1-undecanol, 1-undecanol, reference compound] : reported Intensity of saltiness, Aqueous NaCl solution = ?
Reply: 3.0

Ask: What value of measured Intensity of saltiness, Aqueous NaCl solution is listed for CCCCO ?
Reply: 3.2

Ask: Give the measured Intensity of saltiness, Aqueous NaCl solution of CCCCCCCCCC=O .
Reply: 3.5

Ask: Consider the molecule CCO [ethanol, reference compound] and give its measured Intensity of saltiness, Aqueous NaCl solution.
Reply: 3.0

Ask: Using the record for CCCCCCCO , report its Intensity of saltiness, Aqueous NaCl solution.
Reply: 3.2

Ask: # input molecule: CCCC=O ; wanted: its Intensity of saltiness, Aqueous NaCl solution
Reply: 3.5

Reference for the values: patent US20120177797A1
